The following compounds are shown together with reported pKi values.
ASSAYED SYSTEM: human D2 (long variant) receptor (Homo sapiens)
MEASUREMENT DESCRIPTION: radioligand binding competition assay, D2
STUDY CONDITIONS: membranes of Ltk- cells expressing D2 (long variant); 0.2 nM [3H] Methylspiperone; 1 hour at room temperature
pKi: −log10 of the molar value.
READOUT KIND: pKi

[[record]]
compound = "CN1CCc2cc(Cl)c3[nH]nnc3c2[C@H]2c3ccccc3CC[C@@H]21 [Compound 15A]"
readout_kind = "pKi"
number = 5.82

[[record]]
compound = "CN1CCc2cc(Cl)c3nc(O)sc3c2[C@@H](c2ccccc2)C1 [Compound 25B]"
readout_kind = "pKi"
number = 5.54

[[record]]
compound = "CN1CCc2cc(Cl)c3[nH]c(=O)[nH]c3c2[C@H]2c3cccc(-c4ccccc4)c3CC[C@@H]21"
readout_kind = "pKi"
number = 6.47

[[record]]
compound = "CN1CCc2cc(Cl)c3[nH]cnc3c2[C@H]2c3ccccc3CC[C@@H]21 [Compound 13A]"
readout_kind = "pKi"
number = 6.01

[[record]]
compound = "Oc1nc2c(Cl)cc3c(c2[nH]1)[C@H]1c2ccccc2CC[C@@H]1NCC3 [Compound 18A]"
readout_kind = "pKi"
number = 5.49

[[record]]
compound = "CN1CCc2cc(Cl)c3[nH]c(=S)[nH]c3c2[C@H]2c3ccccc3CC[C@@H]21 [Compound 17A]"
readout_kind = "pKi"
number = 5.98

[[record]]
compound = "O=c1[nH]c2c(Cl)cc3c(c2s1)[C@@H](c1ccccc1)CNCC3 [Compound 26B]"
readout_kind = "pKi"
number = 5.50

[[record]]
compound = "CN1CCc2cc(Cl)c3[nH]ncc3c2[C@@H](c2ccccc2)C1"
readout_kind = "pKi"
number = 5.45

[[record]]
compound = "O=c1[nH]c2c(Cl)cc3c(c2s1)[C@H]1c2ccccc2CC[C@@H]1NCC3 [Compound 26A]"
readout_kind = "pKi"
number = 6.18

[[record]]
compound = "Cc1cc2c3c(cc(Cl)c2[nH]1)CCN(C)[C@H]1CCc2ccccc2[C@H]31"
readout_kind = "pKi"
number = 6.63

[[record]]
compound = "CN1CCc2cc(Cl)c3[nH]c(O)nc3c2[C@H]2c3ccccc3CC[C@@H]21 [Compound 16A]"
readout_kind = "pKi"
number = 5.99

[[record]]
compound = "O=c1[nH]c2c(Cl)cc3c(c2[nH]1)[C@H]1c2cccc(Br)c2CC[C@@H]1NCC3 [Compound 18C]"
readout_kind = "pKi"
number = 6.19

[[record]]
compound = "Clc1cc2c(c3cn[nH]c13)[C@@H](c1ccccc1)CNCC2"
readout_kind = "pKi"
number = 5.30

[[record]]
compound = "CN1CCc2cc(Cl)c3[nH]c(=O)[nH]c3c2[C@H]2c3cccc(Br)c3CC[C@@H]21 [Compound 16C]"
readout_kind = "pKi"
number = 6.76

[[record]]
compound = "CN1CCc2cc(Cl)c3[nH]c(=O)sc3c2[C@H]2c3ccccc3CC[C@@H]21 [Compound 25A]"
readout_kind = "pKi"
number = 6.59


----------
ASSAYED SYSTEM: human D1 receptor (Homo sapiens)
Construct: expressed in transfected cells; host or cells: Ltk- cells (mouse fibroblast line), membrane preparation
Sequence (P21728 whole entry): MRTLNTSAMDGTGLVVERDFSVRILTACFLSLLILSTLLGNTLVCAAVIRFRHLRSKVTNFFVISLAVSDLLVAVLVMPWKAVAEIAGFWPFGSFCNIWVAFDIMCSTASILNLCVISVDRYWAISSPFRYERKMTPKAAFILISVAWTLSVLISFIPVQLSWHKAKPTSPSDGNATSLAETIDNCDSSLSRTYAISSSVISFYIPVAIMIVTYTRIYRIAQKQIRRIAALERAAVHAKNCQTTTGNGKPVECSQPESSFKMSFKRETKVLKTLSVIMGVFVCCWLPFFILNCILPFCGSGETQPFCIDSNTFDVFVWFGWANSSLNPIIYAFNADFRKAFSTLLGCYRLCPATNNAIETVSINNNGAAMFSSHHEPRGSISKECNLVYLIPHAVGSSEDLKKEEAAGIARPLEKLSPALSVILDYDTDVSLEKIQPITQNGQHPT
MEASUREMENT DESCRIPTION: radioligand binding competition assay, D1
pKi: −log10 of the molar value.
Classify as follows. Reported pKi greater than or equal to 8: yes (1). Reported pKi below: no (0).

[[record]]
compound = "CN1CCc2cc(Cl)c3[nH]c(=S)[nH]c3c2[C@H]2c3ccccc3CC[C@@H]21 [Compound 17A]"
assigned_label = "no (0)"

[[record]]
compound = "Cc1cc2c3c(cc(Cl)c2[nH]1)CCN(C)[C@H]1CCc2ccccc2[C@H]31"
assigned_label = "no (0)"

[[record]]
compound = "CN1CCc2cc(Cl)c3[nH]c(=O)sc3c2[C@H]2c3ccccc3CC[C@@H]21 [Compound 25A]"
assigned_label = "yes (1)"


----------
ASSAYED SYSTEM: human D1 receptor (Homo sapiens)
Construct: expressed in transfected cells; host or cells: Ltk- cells (mouse fibroblast line), membrane preparation
MEASUREMENT DESCRIPTION: radioligand binding competition assay, D1
STUDY CONDITIONS: membranes of Ltk- cells expressing D1; 1 nM [3H] compound of formula III; 1 hour at room temperature; read-out: D1 (Ki)
Procedure: Affinity values (Ki) of compounds at human D1 and D2 receptors were ascertained using radioligand binding competition assays. Ltk- cells expressing D1 and D2 (long variant) receptors were lysed in hypotonic buffer for membrane preparation. Membranes were incubated with various concentrations of test compound and 1 nM [3H] of a compound of formula III and 0.2 nM [3H] […] Bound radioactivity on the dried filters was quantified by liquid scintillation counting.
pKi: −log10 of the molar value.
Lab note: anything with pKi at or over 7 counts as MET; the rest go in NOT MET.

[[record]]
compound = "CN1CCc2cc(Cl)c3[nH]c(=O)[nH]c3c2[C@H]2c3cccc(-c4ccccc4)c3CC[C@@H]21 [Compound 27]"
assayed_system = "human D1 receptor (Homo sapiens)"
assigned_label = "MET"

[[record]]
compound = "O=c1[nH]c2c(Cl)cc3c(c2s1)[C@@H](c1ccccc1)CNCC3 [Compound 26B]"
assayed_system = "human D1 receptor (Homo sapiens)"
assigned_label = "NOT MET"

[[record]]
compound = "CN1CCc2cc(Cl)c3[nH]c(=O)[nH]c3c2[C@H]2c3cccc(Br)c3CC[C@@H]21 [Compound 16C]"
assayed_system = "human D1 receptor (Homo sapiens)"
assigned_label = "MET"

[[record]]
compound = "CN1CCc2cc(Cl)c3[nH]cnc3c2[C@H]2c3ccccc3CC[C@@H]21 [Compound 13A]"
assayed_system = "human D1 receptor (Homo sapiens)"
assigned_label = "NOT MET"

[[record]]
compound = "CN1CCc2cc(Cl)c3[nH]c(O)nc3c2[C@@H](c2ccccc2)C1 [Compound 16B]"
assayed_system = "human D1 receptor (Homo sapiens)"
assigned_label = "NOT MET"

[[record]]
compound = "O=c1[nH]c2c(Cl)cc3c(c2[nH]1)[C@H]1c2cccc(Br)c2CC[C@@H]1NCC3 [Compound 18C]"
assayed_system = "human D1 receptor (Homo sapiens)"
assigned_label = "MET"

[[record]]
compound = "Clc1cc2c(c3cn[nH]c13)[C@@H](c1ccccc1)CNCC2 [Compound 6]"
assayed_system = "human D1 receptor (Homo sapiens)"
assigned_label = "NOT MET"

[[record]]
compound = "CN1CCc2cc(Cl)c3[nH]c(=S)[nH]c3c2[C@@H](c2ccccc2)C1 [Compound 17B]"
assayed_system = "human D1 receptor (Homo sapiens)"
assigned_label = "NOT MET"

[[record]]
compound = "CN1CCc2cc(Cl)c3[nH]ncc3c2[C@@H](c2ccccc2)C1 [Compound 4]"
assayed_system = "human D1 receptor (Homo sapiens)"
assigned_label = "MET"

[[record]]
compound = "Oc1nc2c(Cl)cc3c(c2[nH]1)[C@@H](c1ccccc1)CNCC3 [Compound 18B]"
assayed_system = "human D1 receptor (Homo sapiens)"
assigned_label = "NOT MET"


----------
ASSAYED SYSTEM: human D1 receptor (Homo sapiens)
Construct: expressed in transfected cells; host or cells: Ltk- cells (mouse fibroblast line), membrane preparation
MEASUREMENT DESCRIPTION: radioligand binding competition assay, D1
READOUT KIND: Ki (nM)

[[record]]
molecule = "O=c1[nH]c2c(Cl)cc3c(c2s1)[C@H]1c2ccccc2CC[C@@H]1NCC3 [Compound 26A]"
number = 6.5

[[record]]
molecule = "Oc1nc2c(Cl)cc3c(c2[nH]1)[C@H]1c2ccccc2CC[C@@H]1NCC3 [Compound 18A]"
number = 16.5

[[record]]
molecule = "CN1CCc2cc(Cl)c3[nH]c(O)nc3c2[C@H]2c3ccccc3CC[C@@H]21 [Compound 16A]"
number = 7

